target: chemokine receptor CXCR7 (UniProt P25106 1-362, limits assumed); assay: cell-based or functional assay
Sequence (P25106 whole entry): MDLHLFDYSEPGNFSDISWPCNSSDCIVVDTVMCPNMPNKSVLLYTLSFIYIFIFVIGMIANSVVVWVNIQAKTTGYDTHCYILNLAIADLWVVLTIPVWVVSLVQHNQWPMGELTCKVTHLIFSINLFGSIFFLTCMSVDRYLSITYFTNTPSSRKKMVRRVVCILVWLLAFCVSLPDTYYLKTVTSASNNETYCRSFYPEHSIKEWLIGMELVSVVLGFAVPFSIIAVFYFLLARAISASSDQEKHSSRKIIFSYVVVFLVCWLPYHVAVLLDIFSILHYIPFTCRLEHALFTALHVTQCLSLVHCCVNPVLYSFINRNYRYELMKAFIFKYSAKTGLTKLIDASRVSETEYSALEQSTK
Square brackets hold non-standard residues; d marks the D form. dPro(cis-4-NH2) = N[C@H]1CN[C@@H](C(=O)O)C1; Tic = O=C(O)[C@@H]1Cc2ccccc2CN1; Orn = NCCC[C@H](N)C(=O)O; Ar7 = not defined here
Measured β-Arrestin EC50 accompanies every entry in the list below.
Just the number in nM, nothing appended.

Name the recorded β-Arrestin EC50 for cyclo(W[dF]W[Orn](Ar7)[dPro(cis-4-NH2)][Tic]) (reading uncertain; also: printed as cyclo(-Trp-^DPhe-Trp-Orn(Ar7)-^DPro((4R)NH2)-Tic-)) [cyclo(-Trp-^DPhe-Trp-Orn(Ar7)-^DPro((4R)NH2)-Tic-)] .
145

Name the recorded β-Arrestin EC50 for cyclo(I[dR]RF[dP]T) (SMILES CC[C@H](C)[C@@H]1NC(=O)[C@H]([C@@H](C)O)NC(=O)[C@H]2CCCN2C(=O)[C@H](Cc2ccccc2)NC(=O)[C@H](CCCNC(=N)N)NC(=O)[C@@H](CCCNC(=N)N)NC1=O) [cyclo(-Ile-^DArg-Arg-Phe-^DPro-Thr-)] .
46.4

Name the recorded β-Arrestin EC50 for cyclo(I[dR]RY[dP]T) (SMILES CC[C@H](C)[C@@H]1NC(=O)[C@H]([C@@H](C)O)NC(=O)[C@H]2CCCN2C(=O)[C@H](Cc2ccc(O)cc2)NC(=O)[C@H](CCCNC(=N)N)NC(=O)[C@@H](CCCNC(=N)N)NC1=O) [cyclo(-Ile-^DArg-Arg-Tyr-^DPro-Thr-)] .
83.7
